Read-out: Human Leukocyte Antigen - DR isotype (HLADR), HLA-DRA (gene 3122)
METHOD: BSK_BE3C_HLADR: BioMAP Diversity Plus: BE3C Assay for Human Leukocyte Antigen - DR isotype (HLADR) Biomarker Activity (AID 2283032)
REPORTED_CONDITIONS: primary human bronchial epithelial cells; actives raise or lower the signal
Protocol: BSK_BE3C is a cell-based, multiplexed-readout assay that uses bronchial epithelial cell, a human lung primary cell, with measurements taken at 24 hours after chemical dosing in a 96-well plate.BSK_BE3C_HLADR is an assay component measured in the BSK_BE3C assay. It measures HLA-DR antibody related to regulation of gene expression using ELISA technology.Data from the assay component BSK_BE3C_HLADR was analyzed into 1 assay endpoint. […]
Active and inactive are the calls of the source. How the source made its calls: active means hit-call score of the fitted dose curve at least 0.9, where 1 is the maximum; inactive means score below 0.9.
Labels: True for active, False for inactive

COMPOUND	GROUP_LABEL
O=c1c2ccccc2oc2ccccc12	False
CCCCNc1ccc(NCCCC)c2c1C(=O)c1ccccc1C2=O	True
O=Nc1ccc(O)cc1	False
CO[Si](OC)(OC)c1ccccc1	False
COc1ccc2nc(N)sc2c1	False
CCCCC/C=C\C/C=C\CCCCCCCC(=O)OC	True
CC(C)(c1cc(Br)c(OCCO)c(Br)c1)c1cc(Br)c(OCCO)c(Br)c1	False
CC1OC1C1CCC2(C)OC2C1 (centres undefined)	False
O=C1CCCN1CCO	False
CCCCCCCCCCCCCCCC[N+](C)(C)CC	True
c1ccc2c(c1)ccc1cc3c(ccc4ccccc43)cc12	False
C=C[Si](OC(C)=O)(OC(C)=O)OC(C)=O	False
CCO[Si](C)(OCC)OCC	False
CN1C(=O)N(C)C(O)C1O (centres undefined)	False
